Entries and their EC50
Assay Target: T1, recombinant human ErbB2 extracellular domain (ErbB2-ECD) (human, UniProt P04626 23-652)
T1 construct: extracellular domain; Coated on plates or used biotin-labeled in solution (capture ELISA); also called Human ErbB2-ECD; rhErbB2
Test Protocol: capture ELISA, recombinant ErbB2-ECD
Please respond with the number in nM and leave the unit unwritten.

5G9.v12 humanized antibody (antibody, V domains shown, VH.5/VL.v1, back mutations I48M/0) VH: EVQLVQSGAEVKKPGSSVKVSCKTSGYTFSSYTIHWVRQAPGQGLEWMGYINPSSDYTAYNQKFRDRATLTADQSTNTAYMELSSLRSEDTAVYYCARASAFSLDFWGQGTLVTVSS VL: DIQMTQSPSSLSASVGDRVTITCKASHDIDRYIAWYQHKPGKGPKLLIHYTSTLQPGIPSRFSGSGSGRDYTLTISSLQPEDVATYYCLNYDNLLWTFGQGTKVEIK :: 0.029
5G9.v5 humanized antibody (antibody, V domains shown, VH.v1/VL.4, back mutations 0/I58V) VH: EVQLVQSGAEVKKPGSSVKVSCKTSGYTFSSYTIHWVRQAPGQGLEWIGYINPSSDYTAYNQKFRDRATLTADQSTNTAYMELSSLRSEDTAVYYCARASAFSLDFWGQGTLVTVSS VL: DIQMTQSPSSLSASVGDRVTITCKASHDIDRYIAWYQHKPGKGPKLLIHYTSTLQPGVPSRFSGSGSGRDYTLTISSLQPEDVATYYCLNYDNLLWTFGQGTKVEIK :: 0.013
5G9.v2 humanized antibody (antibody, V domains shown, VH.v1/VL.1, back mutations 0/H38Q) VH: EVQLVQSGAEVKKPGSSVKVSCKTSGYTFSSYTIHWVRQAPGQGLEWIGYINPSSDYTAYNQKFRDRATLTADQSTNTAYMELSSLRSEDTAVYYCARASAFSLDFWGQGTLVTVSS VL: DIQMTQSPSSLSASVGDRVTITCKASHDIDRYIAWYQQKPGKGPKLLIHYTSTLQPGIPSRFSGSGSGRDYTLTISSLQPEDVATYYCLNYDNLLWTFGQGTKVEIK :: 0.062
5G9 chimera (antibody, V domains shown, also called 5G9 chimeric; 5G9 chimeric antibody) VH: QVQLQQSGAELARPGASVKMSCKTSGYTFSSYTIHWVKQRPGQGLDWIGYINPSSDYTAYNQKFRDKATLTADQSSNTAYMQLSSLASADSAVYYCARASAFSLDFWGQGTTLTVSS VL: DIQMTQSPSSLSASLGGKVTISCKASHDIDRYIAWYQHKPGKGPRLLIHYTSTLQPGIPSRFSGSGSGRDYSFSISNLEPEDVATYYCLNYDNLLWTFGGGTKLEIT :: 0.044
5G9.v4 humanized antibody (antibody, V domains shown, VH.v1/VL.3, back mutations 0/H49Y) VH: EVQLVQSGAEVKKPGSSVKVSCKTSGYTFSSYTIHWVRQAPGQGLEWIGYINPSSDYTAYNQKFRDRATLTADQSTNTAYMELSSLRSEDTAVYYCARASAFSLDFWGQGTLVTVSS VL: DIQMTQSPSSLSASVGDRVTITCKASHDIDRYIAWYQHKPGKGPKLLIYYTSTLQPGIPSRFSGSGSGRDYTLTISSLQPEDVATYYCLNYDNLLWTFGQGTKVEIK :: 0.072
5G9.v9 humanized antibody (antibody, V domains shown, VH.2/VL.v1, back mutations L69I/0) VH: EVQLVQSGAEVKKPGSSVKVSCKTSGYTFSSYTIHWVRQAPGQGLEWIGYINPSSDYTAYNQKFRDRATITADQSTNTAYMELSSLRSEDTAVYYCARASAFSLDFWGQGTLVTVSS VL: DIQMTQSPSSLSASVGDRVTITCKASHDIDRYIAWYQHKPGKGPKLLIHYTSTLQPGIPSRFSGSGSGRDYTLTISSLQPEDVATYYCLNYDNLLWTFGQGTKVEIK :: 0.054

Shifting focus to the binder that follows.
In: Param item = 5G9.v1 humanized antibody (antibody, V domains shown, VH.v1/VL.v1, back mutations 0/0) VH: EVQLVQSGAEVKKPGSSVKVSCKTSGYTFSSYTIHWVRQAPGQGLEWIGYINPSSDYTAYNQKFRDRATLTADQSTNTAYMELSSLRSEDTAVYYCARASAFSLDFWGQGTLVTVSS VL: DIQMTQSPSSLSASVGDRVTITCKASHDIDRYIAWYQHKPGKGPKLLIHYTSTLQPGIPSRFSGSGSGRDYTLTISSLQPEDVATYYCLNYDNLLWTFGQGTKVEIK ; retrieve measured EC50.
Out: 0.031
